protocol details: Dark cytotoxicity against human MDA-MB-231 cells assessed as cell viability incubated for 24 hrs by CCK8 assay
Format: toxicity, cell-based
Let's look at some molecules and their measured IC50 at 24 h.
property: IC50 at 24 h

INSERT INTO results (query_smiles, property, result) VALUES
  ('C[N+]1=C(/C=C/c2ccc(-c3cnn4ccc(N5CCOCC5)nc34)s2)C(C)(C)c2ccccc21', 'IC50 at 24 h', '> 10 µM'),
  ('CC[n+]1ccc(/C=C/c2ccc(-c3cnn4ccc(N5CCOCC5)nc34)s2)c2ccccc21', 'IC50 at 24 h', '> 10 µM'),
  ('CC[n+]1c(/C=C/c2ccc(-c3cnn4ccc(N5CCOCC5)nc34)s2)sc2ccccc21.[I-]', 'IC50 at 24 h', '> 20 µM'),
  ('CC[n+]1c(/C=C/c2ccc(-c3cnn4ccc(N5CCOCC5)nc34)o2)sc2ccccc21', 'IC50 at 24 h', '> 10 µM'),
  ('CC[N+]1=C(/C=C/c2ccc(-c3cnn4ccc(N5CCOCC5)nc34)s2)C(C)(C)c2cc(I)ccc21', 'IC50 at 24 h', '> 10 µM'),
  ('CC[n+]1ccc(/C=C/c2ccc(-c3cnn4ccc(N5CCOCC5)nc34)s2)cc1.[Br-]', 'IC50 at 24 h', '> 10 µM');

Reference for the values: ChEMBL document CHEMBL6177984
